Task for the reader: assign each of the following molecules its reported TGI.
System: OVCAR-5 ovarian
PROCEDURE TEXT: NCI tumour cell line growth inhibition, 48 h

# return TGI for each item in the list
1. Nc1ncnc2c1ccn2-c1cccc(NC(=O)c2ccc(N3CCOCC3)c(C(F)(F)F)c2)c1
2. CCOc1ccc2c(c1)C(=O)c1c-2n(CCCN=[N+]=[N-])c(=O)c2cc([N+](=O)[O-])ccc12
3. CC(C)CC1N=C(OCc2ccccc2)OC1=O (stereo not drawn)
4. CC(C)[Si](Oc1ccc(CC2N(C(=O)c3ccc([N+](=O)[O-])cc3)C(CCc3ccccc3)CC2(C)C=O)cc1)(C(C)C)C(C)C (stereo not drawn)
5. CN(C)CC(C)(C)CN1c2ccccc2Sc2ccccc21
6. COC(=O)c1c2c(c(C)[n+]([O-])c1C)C(=O)C(NCc1ccc(O)cc1)=CC2=O

1. 21.1 µM
2. > 100 µM
3. > 100 µM
4. > 100 µM
5. 29.9 µM
6. 3.36 µM

Lab note: each molecule below needs its TGI filled in.
1. CN1C2(c3ccccc3)C(C(=O)c3ccccc3)=C(C(=O)c3ccccc3)C1(c1ccccc1)c1c(-c3ccccc3)sc(-c3ccccc3)c12
2. O=C(Nc1cccc(-n2cc(-c3ccncc3)c(-c3ccc(Cl)c(O)c3)n2)c1)Nc1ccc(Cl)c(Cl)c1

1: > 100 µM; 2: > 32.5 µM
